ASSAY_METHOD_TEXT: ASC/caspase-1 reporter retest in S. cerevisiae at one dose, specificity check for NALP1 project (AID 488857)
ASSAY_CONTEXT: S. cerevisiae ASC/Caspase-1, beta-galactosidase luminescence, 24 h; at 10 µM; stronger effect = higher value
Among all 1,400 compounds or so, about 560 (40%) were called active. So high a share suggests a set chosen from earlier hits. This is one part of the list.
MEASURED_PROPERTY: inhibition (%)
Reply with just the number (in %).

> print(dat)
                                   compound  output.unit  reported.result
1    CCOc1ccccc1C(=O)Nc1cnn(Cc2ccc(F)cc2)c1            %             61.2
2  CCOC(=O)c1ccc(NC(=O)CC2Sc3ncnn3C2=O)cc1 (stereo unspecified)            %             64.7
3  CCOC(=O)c1ccc(NC(=O)CSc2nnc(CNc3ccc(C)cc3)n2C)cc1            %             31.4
4  CCC1(CC)Cc2ccccc2C(Nc2c(C)n(C)n(-c3ccccc3)c2=O)=N1            %             18.9
5  COc1ccccc1C(=O)Nc1nc2nc(-c3ccccc3)cc(=O)n2[nH]1            %             15.4
6         O=C(N/N=C/c1ccc2c(c1)OCO2)c1cccs1            %             68.9
7  O=C(CC1Sc2ncnn2C1=O)Nc1ccc(Br)cc1 (stereo unspecified)            %             33.6
8                    Oc1c(I)cc(Cl)c2cccnc12            %             97.2

input: Give me measured inhibition, please, for this compound: `CCN1CCN(C(=S)Nc2ccc(Cl)c(Cl)c2)CC1`
output: 22.7

input: Give me measured inhibition, please, for this compound: `O=C(/C=C/c1ccc2c(c1)OCCCO2)c1ccccc1O`
output: 61.2

input: Give me measured inhibition, please, for this compound: `CN(C)c1nc(N)nc(CSc2nnnn2-c2ccc(C(=O)O)cc2)n1`
output: 18.2
